Data origin: PubChem BioAssay (NCI)

Below are GI50 values measured for U251 CNS.

{"Molecule": "CCCCNCC(O)c1cc2c(Cl)cc(Cl)cc2c2cc(C(F)(F)F)ccc12 (stereo not drawn)", "Assay target": "U251 CNS", "GI50": "1.72 µM"}
{"Molecule": "Clc1ccc(CCC(Cn2ccnc2)Sc2c(Cl)cccc2Cl)cc1 (stereo not drawn)", "Assay target": "U251 CNS", "GI50": "3.23 µM"}
{"Molecule": "COc1ccc(C2CC(c3cc(Cl)c(C)cc3O)=NN2c2ccc(S(N)(=O)=O)cc2)cc1OC (stereo not drawn)", "Assay target": "U251 CNS", "GI50": "3.71 µM"}

* * *

We begin with a simple list: items and their reported TGI.
Tested on: DU-145 prostate
Experimental protocol: NCI tumour cell line growth inhibition, 48 h

{"Compound": "O=P(O)(O)C(NCC(O)CN1CCOCC1)P(=O)(O)O (stereo not given)", "TGI": "> 100 µM"}
{"Compound": "COc1ccc(CCn2c3c(c4c(O)cccc42)C(=O)c2ccccc2-3)cc1OC", "TGI": "> 100 µM"}
{"Compound": "C=C(C)C(=O)Oc1ccc(N=Nc2ccc(C)cc2)ccc1=O", "TGI": "15.8 µM"}
{"Compound": "O=C(c1c2c(cc3c1CC1(Cc4cc5c(cc4C1)CCCC5)C3)CCCC2)C(Br)Br", "TGI": "> 100 µM"}
{"Compound": "O=S1CCN(Cc2ccc(-c3ccc4ncnc(Nc5ccc(OCc6ccccc6)c(Cl)c5)c4c3)o2)CC1", "TGI": "> 25 µM"}

* * *

Test system: KM12 colon
Experimental protocol: NCI tumour cell line growth inhibition, 48 h; in the data active = GI50 below about 0.43 µM; inactive = the rest
Classes used: T for active, F for inactive

{"Molecule": "COc1ccc(Nc2nccc(Nc3ccc4[nH]ncc4c3)n2)cc1", "Assay target": "KM12 colon", "Class": "F"}
{"Molecule": "COc1cc(-c2n[nH]nc2-c2ccc3c(c2)OCCO3)cc(OC)c1OC", "Assay target": "KM12 colon", "Class": "T"}
{"Molecule": "Cc1cccc2c(C(=O)O[C@H](C(N)=O)[C@]3(C)CO3)cccc12", "Assay target": "KM12 colon", "Class": "F"}
{"Molecule": "CCCC(c1nnnn1C1CCCCC1)N1CCN(C(=O)c2ccco2)CC1 (centres undefined)", "Assay target": "KM12 colon", "Class": "F"}
{"Molecule": "C=Cc1ccccc1 (tested in a mixture with another compound)", "Assay target": "KM12 colon", "Class": "F"}
{"Molecule": "Cn1ncc2c(Sc3ccc(Cl)cc3)ncnc21", "Assay target": "KM12 colon", "Class": "F"}
{"Molecule": "NCCOc1ncccc1/C=C1\\c2ccccc2-c2ccc(F)cc21", "Assay target": "KM12 colon", "Class": "F"}
{"Molecule": "O=S1CCN(Cc2ccc(-c3ccc4ncnc(Nc5ccc(OCc6ccccc6)c(Cl)c5)c4c3)o2)CC1", "Assay target": "KM12 colon", "Class": "F"}
{"Molecule": "[O-]c1ccccc1/C=N/c1nccs1.[O-]c1ccccc1/C=N/c1nccs1.[O]=[U+2]=[O]", "Assay target": "KM12 colon", "Class": "F"}

* * *

We begin with a simple list: items and their reported TGI.
System: HCT-15 colon
Experimental protocol: NCI tumour cell line growth inhibition, 48 h

{"Molecule": "O=C(O)CNC(=O)C(CSC(=O)OCC1c2ccccc2-c2ccccc21)NC(=O)CCC(NC(=O)OCC1c2ccccc2-c2ccccc21)C(=O)O (configuration not stated)", "Assay target": "HCT-15 colon", "TGI": "64.8 µM"}
{"Molecule": "COc1ccc(-c2cc(-c3ccccc3)nc(/N=C\\c3ccccc3)n2)c(O)c1", "Assay target": "HCT-15 colon", "TGI": "> 100 µM"}
{"Molecule": "COc1ccc(OC)c(NC(=O)C2=C(C)NC(C)=C(C(=O)Nc3cc(OC)ccc3OC)C2c2ccco2)c1", "Assay target": "HCT-15 colon", "TGI": "> 100 µM"}
{"Molecule": "CC(=O)OC1COC(N2CCc3ccccc32)C(OC(C)=O)C1OC(C)=O (configuration not stated)", "Assay target": "HCT-15 colon", "TGI": "> 100 µM"}
{"Molecule": "C=C1C(=O)O[C@H]2[C@H]1CC/C(COC(=O)CCCCCCC(=O)OC/C1=C/CC[C@@]3(C)O[C@H]3[C@H]3OC(=O)C(=C)[C@@H]3CC1)=C\\CC[C@@]1(C)O[C@@H]21", "Assay target": "HCT-15 colon", "TGI": "10.1 µM"}
{"Molecule": "C/C(=N\\O)c1ccc2cc(Br)c3ccccc3c2c1", "Assay target": "HCT-15 colon", "TGI": "34.7 µM"}
{"Molecule": "O=C(O)c1cc2ccccc2c(N=Nc2ccc(S(=O)(=O)O)cc2)c1O", "Assay target": "HCT-15 colon", "TGI": "> 100 µM"}
{"Molecule": "NC(=O)SCC(=O)Nc1ccc2cccc3c2c1CC3", "Assay target": "HCT-15 colon", "TGI": "> 100 µM"}
{"Molecule": "O=S1CCN(Cc2ccc(-c3ccc4ncnc(Nc5ccc(OCc6ccccc6)c(Cl)c5)c4c3)o2)CC1", "Assay target": "HCT-15 colon", "TGI": "> 25 µM"}
{"Molecule": "Cn1cc(-c2nc3c(F)cc4[nH]ncc4c3c3c2CCCC3)c(C(F)(F)F)n1", "Assay target": "HCT-15 colon", "TGI": "> 100 µM"}
{"Molecule": "CC(C)(C)c1ccc(C(=O)Nc2sc3c(c2C#N)CCC(=O)C3)cc1", "Assay target": "HCT-15 colon", "TGI": "3.4 µM"}
{"Molecule": "COc1cc(-c2n[nH]nc2-c2ccc3c(c2)OCCO3)cc(OC)c1OC", "Assay target": "HCT-15 colon", "TGI": "> 100 µM"}
{"Molecule": "Cc1c(C(=O)OCc2ccccc2)[n+](=O)c2ccccc2n1[O-]", "Assay target": "HCT-15 colon", "TGI": "> 100 µM"}
{"Molecule": "CC(=O)c1sc2c(c1OC(=O)c1ccc(Cl)cc1Cl)c(=O)n(-c1ccccc1)c(=S)n2-c1ccccc1", "Assay target": "HCT-15 colon", "TGI": "11.2 µM"}
{"Molecule": "N=[N+]=NC1C(O)C(CO)OC1n1cnc2c(N)ncnc21 (configuration not stated)", "Assay target": "HCT-15 colon", "TGI": "> 100 µM"}
{"Molecule": "Cc1cc2c([nH]1)CSc1cc(S(=O)(=O)c3ccccc3)c(=O)[nH]c1-2", "Assay target": "HCT-15 colon", "TGI": "> 100 µM"}
{"Molecule": "COc1cc(/C=N/Nc2ncnc3[nH]ncc23)ccc1O", "Assay target": "HCT-15 colon", "TGI": "> 25 µM"}
{"Molecule": "COc1cc2c(c(OC)c1OC)-c1cccc(=O)cc1C(NC(C)=O)CC2 (configuration not stated)", "Assay target": "HCT-15 colon", "TGI": "> 100 µM"}
{"Molecule": "FC(F)(F)c1ccc(-c2cnc(Cl)nc2NC2CCCCCC2)cc1", "Assay target": "HCT-15 colon", "TGI": "> 100 µM"}
{"Molecule": "CCCCNc1nc2nc[nH]c2c(=O)[nH]1", "Assay target": "HCT-15 colon", "TGI": "> 100 µM"}
{"Molecule": "COC(=O)/C(C#N)=C(\\Nc1ccccc1)N1CCCC1", "Assay target": "HCT-15 colon", "TGI": "> 100 µM"}
{"Molecule": "CN(C)Cc1cc(/C(=C(\\C#N)c2ccccc2)c2ccc(O)cc2)ccc1O", "Assay target": "HCT-15 colon", "TGI": "96.5 µM"}
{"Molecule": "COc1cc2c(cc1OC)C1Cc3sccc3CN1CC2 (configuration not stated)", "Assay target": "HCT-15 colon", "TGI": "> 100 µM"}
{"Molecule": "CC(=O)C(C)CCOC1(C)OCCC1C (configuration not stated)", "Assay target": "HCT-15 colon", "TGI": "> 100 µM"}
{"Molecule": "C=CCNC(=O)N1CC(C)C(=O)Nc2ccccc21 (configuration not stated)", "Assay target": "HCT-15 colon", "TGI": "> 100 µM"}
{"Molecule": "COc1ccc(C2N(c3ccc(F)c([N+](=O)[O-])c3)C(=O)N3C(c4ccc(OC)cc4)N(c4ccc(F)c([N+](=O)[O-])c4)C(=O)N23)cc1 (configuration not stated)", "Assay target": "HCT-15 colon", "TGI": "> 100 µM"}
{"Molecule": "COc1ccc(N2C(=O)C3CC(c4ccc(C)cc4)c4c([nH]c5ccccc45)C3C2=O)cc1 (configuration not stated)", "Assay target": "HCT-15 colon", "TGI": "> 89.7 µM"}
{"Molecule": "O=C(c1ccccc1)C(C(=O)c1ccccc1)c1nc2ccccc2sc1=O", "Assay target": "HCT-15 colon", "TGI": "> 25 µM"}
{"Molecule": "N#Cc1nn(C(N)=O)c(N)c1C#N", "Assay target": "HCT-15 colon", "TGI": "> 100 µM"}
{"Molecule": "O=C(OC1CC(n2cc(F)c(=O)[nH]c2=O)OC1CSC(=O)c1ccccc1)c1ccccc1 (configuration not stated)", "Assay target": "HCT-15 colon", "TGI": "> 100 µM"}
{"Molecule": "C[C@H]1COC(c2ccccn2)=N1", "Assay target": "HCT-15 colon", "TGI": "> 100 µM"}
{"Molecule": "CC(C)C1CNC2N1C(=O)C2(C)OCc1ccccc1 (configuration not stated)", "Assay target": "HCT-15 colon", "TGI": "> 100 µM"}
{"Molecule": "Cn1c(=O)c2nc(N3CCOCC3)cnc2n(C)c1=O", "Assay target": "HCT-15 colon", "TGI": "> 100 µM"}
{"Molecule": "COc1ccc(NC(=S)N/N=C/c2cccc(C)n2)cc1", "Assay target": "HCT-15 colon", "TGI": "> 100 µM"}
{"Molecule": "O=C(O/N=C1/CCCC/C1=C\\c1ccccc1)c1ccc(Cl)c(Cl)c1", "Assay target": "HCT-15 colon", "TGI": "> 100 µM"}
{"Molecule": "c1ccc(-c2c(-c3ccccc3)[n+](Cc3ccc4ccccc4c3)c(-c3cccc4ccccc34)n2Cc2ccc3ccccc3c2)cc1", "Assay target": "HCT-15 colon", "TGI": "1.21 µM"}
{"Molecule": "Cc1nnc(N)nc1C/C=C/C(Sc1ccc(Cl)cc1)c1ccccc1 (configuration not stated)", "Assay target": "HCT-15 colon", "TGI": "15.9 µM"}
{"Molecule": "Cc1ccc(Nc2nc3nc[nH]c3c(=O)[nH]2)cc1CO", "Assay target": "HCT-15 colon", "TGI": "29.9 µM"}
{"Molecule": "O=c1[nH]cnc2c(COCCCO)c[nH]c12", "Assay target": "HCT-15 colon", "TGI": "> 100 µM"}
{"Molecule": "COc1ccc2nc3ccccc3c(NCCN(C)CCCl)c2c1", "Assay target": "HCT-15 colon", "TGI": "7.56 µM"}
{"Molecule": "COc1ccc2c(c1)C(=O)c1c-2n(CCCCl)c(=O)c2cc(OC)c(OC)cc12", "Assay target": "HCT-15 colon", "TGI": "> 100 µM"}
{"Molecule": "O=[N+]([O-])O", "Assay target": "HCT-15 colon", "TGI": "> 100 µM"}
